test system: Human immunodeficiency virus 1; test: Antiviral activity against HIV1 with reverse transcriptase K103N/Y181C mutant in MT4 cells assessed as inhibition of virus-induced cytopathic effect; format: functional, organism-based; details: Human immunodeficiency virus 1, MT4
observation-type: log10 EC50 (log10 of the value in nM)
The figures below represent log10 of EC50, where EC50 is stated in nM.

Entry Cc1cc(Cc2ccc(Cl)c(Oc3cc(Cl)cc(C#N)c3)c2F)n[nH]c1=O needs its log10 EC50 filled in; supply it.
1.28

Query log10 EC50 for Cn1c(Cc2ccc(Br)c(Oc3cc(Cl)cc(C#N)c3)c2F)n[nH]c1=O
0.95

Look up and report measured log10 EC50 for this entry: Cn1c(Cc2ccc(C3CC3)c(Oc3cc(Cl)cc(C#N)c3)c2F)n[nH]c1=O
1.04

Others:
Indicate the recorded log10 EC50 value for this compound: CC1OC(Cc2ccc(Cl)c(Oc3cc(Cl)cc(C#N)c3)c2F)=NNC1=O (stereo not drawn)
1.53

For C[C@H]1NC(Cc2ccc(Cl)c(Oc3cc(Cl)cc(C#N)c3)c2F)=NNC1=O , write its log10 EC50.
1.86

Supply measured log10 EC50 of CCc1ccc(Cc2n[nH]c(=O)n2C)c(F)c1Oc1cc(Cl)cc(C#N)c1 in your reply.
0.60

Note down log10 EC50 recorded for Cc1ccc(Cc2n[nH]c(=O)n2C)c(F)c1Oc1cc(Cl)cc(C#N)c1
1.41

Let me know recorded log10 EC50 for Cn1c(Cc2ccc(Cl)c(Oc3cc(Cl)cc(C#N)c3)c2F)n[nH]c1=O , thanks.
1.59

Values compiled from ChEMBL document CHEMBL1155865.
